Entries with their measured IC50, system KDR kinase (790-1356 AA) (Homo sapiens (Human), UniProt P35968):
value_type: IC50 (nM)

{"compound": "Cc1cc(Oc2ccnc(NC(=O)C3CC3)c2)ncc1NC(=O)Nc1ccc(Cl)c(C(F)(F)F)c1 [Exe. 018]", "value_type": "IC50", "reported_result": 9.4}
{"compound": "Cc1ccc(Oc2ccnc(NC(=O)C3CC3)c2)cc1NC(=O)Nc1cc(C(F)(F)F)ccc1F [Exe. 225]", "value_type": "IC50", "reported_result": 10.7}
{"compound": "Cc1cc(Oc2cc(NC(=O)C3CC3)ncn2)c(F)cc1NC(=O)Nc1ccc(Cl)c(C(F)(F)F)c1 [Exe. 003]", "value_type": "IC50", "reported_result": 16.7}
{"compound": "Cc1ccc(Oc2ccnc(NC(=O)C3CC3)c2)cc1NC(=O)Nc1ccc(Cl)c(C(C)(F)F)c1 [Exe. 228]", "value_type": "IC50", "reported_result": 14.7}
{"compound": "Cc1cc(Oc2cc(NC(=O)C3CC3)ncn2)ccc1NC(=O)Nc1ccc(Cl)c(C(C)(F)F)c1 [Exe. 085]", "value_type": "IC50", "reported_result": 10.7}
{"compound": "O=C(Nc1ccc(Oc2cc(NC(=O)C3CC3)ncn2)cc1)Nc1ccc(Cl)c(C(F)(F)F)c1 [Exe. 007]", "value_type": "IC50", "reported_result": 5.7}
{"compound": "O=C(Nc1ccc(Oc2cc(NC(=O)C3CC3)ncn2)nc1)Nc1ccc(Cl)c(C(F)(F)F)c1 [Exe. 015]", "value_type": "IC50", "reported_result": 4.2}
{"compound": "O=C(Nc1cc(F)cc(Oc2cc(NC(=O)C3CC3)ncn2)c1)Nc1cc(F)cc(C(F)(F)F)c1 [Exe. 098]", "value_type": "IC50", "reported_result": 105}
{"compound": "Cc1cc(Oc2cc(NC(=O)C3CC3)ncn2)ccc1NC(=O)Nc1ccc(F)c(OC(F)(F)F)c1 [Exe. 081]", "value_type": "IC50", "reported_result": 13.3}
{"compound": "O=C(Nc1cncc(C(F)(F)F)c1)Nc1ccc(Oc2ccnc(NC(=O)C3CC3)c2)c(F)c1 [Exe. 169]", "value_type": "IC50", "reported_result": 14.6}
{"compound": "O=C(Nc1ccc(Oc2ccnc(NC(=O)C3CC3)c2)c(F)c1)Nc1cc(OC(F)(F)F)ccc1F [Exe. 176]", "value_type": "IC50", "reported_result": 5.7}
{"compound": "CN1CC(Oc2cc(NC(=O)Nc3ccc(Oc4ccnc(NC(=O)C5CC5)c4)cc3)cc(C(F)(F)F)c2)C1 [Exe. 241]", "value_type": "IC50", "reported_result": 17.9}
{"compound": "O=C(Nc1ccc(Oc2ccnc(NC(=O)C3CC3)c2)c(F)c1)Nc1cc(C(F)(F)F)ncn1 [Exe. 170]", "value_type": "IC50", "reported_result": 5.6}
{"compound": "O=C(Nc1ccc(Oc2ccnc(NC(=O)C3CC3)c2)cc1F)Nc1cc(OC(F)(F)F)ccc1F [Exe. 214]", "value_type": "IC50", "reported_result": 9.4}
{"compound": "O=C(Nc1ccc(Oc2ccnc(NC(=O)C3CC3)c2)cc1)Nc1cccc(C(F)(F)F)c1 [Exe. 144]", "value_type": "IC50", "reported_result": 11.4}
{"compound": "O=C(Nc1ccc(Oc2cc(NC(=O)C3CC3)ncn2)cc1)Nc1cc(F)cc(C(F)(F)F)c1 [Exe. 101]", "value_type": "IC50", "reported_result": 12.5}
{"compound": "O=C(Nc1ccc(Oc2ccnc(NC(=O)C3CC3)c2)cc1)Nc1cccc(OC(F)(F)F)c1 [Exe. 146]", "value_type": "IC50", "reported_result": 7.8}
{"compound": "O=C(Nc1ccc(Oc2ccnc(NC(=O)C3CC3)c2)cc1)Nc1ccc2c(c1)C(F)(F)CCO2 [Exe. 151]", "value_type": "IC50", "reported_result": 4.5}
{"compound": "CC1(C(=O)Nc2cc(Oc3ccc(NC(=O)Nc4ccc(Cl)c(C(F)(F)F)c4)cc3F)ccn2)CC1 [Exe. 028]", "value_type": "IC50", "reported_result": 12.7}
{"compound": "CC(F)(F)c1ccnc(NC(=O)Nc2ccc(Oc3ccnc(NC(=O)C4CC4)c3)cc2)c1 [Exe. 147]", "value_type": "IC50", "reported_result": 11.1}
{"compound": "Cc1cc(Oc2cc(NC(=O)C3CC3)ncn2)ccc1NC(=O)Nc1ccc(C#N)c(Cl)c1 [Exe. 086]", "value_type": "IC50", "reported_result": 8.3}
{"compound": "O=C(Nc1ccnc(C(F)(F)F)c1)Nc1ccc(Oc2ccnc(NC(=O)C3CC3)c2)c(F)c1 [Exe. 158]", "value_type": "IC50", "reported_result": 8.3}
{"compound": "O=C(Nc1cc(N2CCN(CCF)CC2)cc(C(F)(F)F)c1)Nc1ccc(Oc2ccnc(NC(=O)C3CC3)c2)c(F)c1 [Exe. 053]", "value_type": "IC50", "reported_result": 13}
{"compound": "Cc1cc(NC(=O)Nc2ccc(Cl)c(C(F)(F)F)c2)ccc1Oc1ccnc(NC(=O)C2CC2)c1 [Exe. 031]", "value_type": "IC50", "reported_result": 14.5}
{"compound": "N#Cc1ccc(NC(=O)Nc2ccc(Oc3ccnc(NC(=O)C4CC4)c3)cc2F)cc1Cl [Exe. 221]", "value_type": "IC50", "reported_result": 6.7}
{"compound": "O=C(Nc1ccc(Oc2ccnc(NC(=O)C3CC3)c2)c(F)c1)Nc1cc(Cl)ccc1F [Exe. 184]", "value_type": "IC50", "reported_result": 7.6}
{"compound": "CC1CN(c2cc(NC(=O)Nc3ccc(Oc4ccnc(NC(=O)C5CC5)c4)c(F)c3)cc(C(F)(F)F)c2)C(=O)O1 (stereo not shown) [Exe. 041]", "value_type": "IC50", "reported_result": 4.2}
{"compound": "CC(F)(F)c1cc(NC(=O)Nc2ccc(Oc3cc(NC(=O)C4CC4)ncn3)c(F)c2)ccc1Cl [Exe. 105]", "value_type": "IC50", "reported_result": 11.3}
{"compound": "C=CC(=O)Nc1cc(NC(=O)Nc2ccc(Oc3ccnc(NC(=O)C4CC4)c3)c(F)c2)cc(C(F)(F)F)c1 [Exe. 163]", "value_type": "IC50", "reported_result": 11.6}
{"compound": "O=C(Nc1cccc(OC(F)(F)F)c1)Nc1ccc(Oc2ccnc(NC(=O)C3CC3)c2)cc1F [Exe. 034]", "value_type": "IC50", "reported_result": 10.2}
{"compound": "O=C(Nc1cccc(Oc2cc(NC(=O)C3CC3)ncn2)c1)Nc1ccc(Cl)c(C(F)(F)F)c1 [Exe. 012]", "value_type": "IC50", "reported_result": 9.9}

FYI, the data here is from patent US9359338B2.
